Test system: ENR+CD organoids
Experiment: Primary screen: ATP (CellTiter-Glo 3D, CTG) cell number/viability, 2.5-D 384-well ENR+CD organoids;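 note: compounds given at plating and again on day 3 over a 6-day differentiation from ENR+CV stem-cell-enriched precursors, ATP measured on day 6, plate median as control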
Settings: primary screen, dose 0.08 uM
measured.parameter: Dose.FC.CTG (log2 fold change)
Numeric only. Scale: log2 fold change

Input CCOC(=O)N1c2ccc(C(F)(F)F)cc2[C@@H](N(Cc2cc(C(F)(F)F)cc(C(F)(F)F)c2)C(=O)OC)C[C@H]1CC [Torcetrapib] , output reported Dose.FC.CTG.
0.283

Input COc1cc(N2CCC(N)CC2)ccc1Nc1ncc(Cl)c(-c2c[nH]c3ccccc23)n1 [AZD3463] , output reported Dose.FC.CTG.
−0.275

Input Cl.Cl.Cl.O[C@@H](COc1cccc2ncccc12)CN1CCN([C@@H]2c3ccccc3[C@@H]3[C@H](c4ccccc42)C3(F)F)CC1 [Zosuquidar (LY335979) 3HCl] , output reported Dose.FC.CTG.
0.017

Input CC(/C=C/C(=O)NO)=C\[C@@H](C)C(=O)c1ccc(N(C)C)cc1 [Trichostatin A (TSA)] , output reported Dose.FC.CTG.
0.191

---

System: ENR+CD organoids (ISC to Paneth cell differentiation)
Test: Primary screen: basal (non-stimulated) lysozyme secretion LYZ.NS, 2.5-D 384-well ENR+CD organoid differentiation
Type: cell-based, mouse
Settings: primary screen; dose 0.08 uM; FC vs plate median
Entries whose Dose.FC.LYZ.NS is below -0.07 log2 fold change take 1 (yes); entries at or above -0.07 log2 fold change take 0 (no).

In plain terms, does CCC(CC)(NC(=O)C(C)C)C(=O)N[C@@H](CCCN=C(N)N)C(=O)NC1(C(=O)NC(c2ccc(F)cc2)c2ccc(F)cc2)CCCC1 [MM-102] come in under -0.07 log2 fold change for Dose.FC.LYZ.NS?
0 (no)

In plain terms, does O=C(NOC[C@H](O)CO)c1ccc(F)c(F)c1Nc1ccc(I)cc1F [PD0325901] come in under -0.07 log2 fold change for Dose.FC.LYZ.NS?
1 (yes)

In plain terms, does CCN(CC)CCCC(C)Nc1nc(C)cc(Nc2ccc3nc(C)cc(N)c3c2)n1 (stereo not drawn) [NSC 23766] come in under -0.07 log2 fold change for Dose.FC.LYZ.NS?
0 (no)

In plain terms, does COc1ccccc1N1CCN(CC(O)COc2cccc3ccccc23)CC1 (stereo not drawn) [Naftopidil] come in under -0.07 log2 fold change for Dose.FC.LYZ.NS?
0 (no)

In plain terms, does C=CCc1cccc(/C=N/NC(=O)CN2CCN(Cc3ccccc3)CC2)c1O [PAC-1] come in under -0.07 log2 fold change for Dose.FC.LYZ.NS?
0 (no)

---

Tested on: ENR+CD organoids (ISC to Paneth cell differentiation)
Assay: Primary screen: basal (non-stimulated) lysozyme secretion LYZ.NS, 2.5-D 384-well ENR+CD organoid differentiation
Format: cell-based, mouse
Conditions: primary screen, dose 0.40 uM, FC relative to plate median
Note: every record was labeled by where its Dose.FC.LYZ.NS sits among low class (below -0.05 log2 fold change), middle class (-0.05 log2 fold change to below 0.04 log2 fold change), high class (0.04 log2 fold change or more)

Please report the category associated with CCc1nc(N)nc(N)c1-c1ccc(Cl)cc1 , nothing else.
middle class

Please report the category associated with O=C(NCc1cccc(O)c1)Nc1nc(-c2ccncc2)cs1 , nothing else.
low class

Please report the category associated with C[S+]([O-])c1ccc(-c2nc(-c3ccc(F)cc3)c(-c3ccncc3)[nH]2)cc1 (centres unmarked) , nothing else.
high class

Please report the category associated with O=C1CC(=O)c2c(Cl)c(Cl)c(Cl)c(Cl)c21 , nothing else.
middle class

Please report the category associated with O=C(/C=C/c1ccccc1)NC(NC(=S)Nc1ccc(Cl)cc1)C(Cl)(Cl)Cl (centres unmarked) , nothing else.
high class

Please report the category associated with O=C1NC(=O)/C(=C/c2cccc(C(F)(F)F)c2)S1 , nothing else.
low class

Please report the category associated with C#CCC(Cc1cnc2nc(N)nc(N)c2n1)c1ccc(C(=O)N[C@@H](CCC(=O)O)C(=O)O)cc1 (some centres unmarked) [Pralatrexate] , nothing else.
low class

Please report the category associated with COc1cc(Br)c(Nc2nc(-c3c(C)nc4ncccn34)cs2)c(Br)c1 , nothing else.
low class

Please report the category associated with N#CC[C@H](C1CCCC1)n1cc(-c2ncnc3[nH]ccc23)cn1 [Ruxolitinib (INCB018424), Ruxolitinib, reference compound] , nothing else.
high class

Please report the category associated with CNC(=O)c1ccccc1Nc1nc(Nc2ccc(N3CCOCC3)cc2OC)ncc1Cl , nothing else.
low class

Please report the category associated with Oc1c2ccccc2c2c3c(cccc13)N=N2 , nothing else.
middle class

Please report the category associated with O=C(Nc1ccccc1-c1cn2c(CN3CCNCC3)csc2n1)c1cnc2ccccc2n1 , nothing else.
high class

Please report the category associated with Cc1cc2c(cc1CC(=O)c1sccc1S(=O)(=O)Nc1onc(C)c1Cl)OCO2 [Sitaxentan sodium] , nothing else.
low class

Please report the category associated with COc1cc2c(cc1OC)CN(CCc1ccc(NC(=O)c3cc(OC)c(OC)cc3NC(=O)c3cnc4ccccc4c3)cc1)CC2 , nothing else.
middle class

Please report the category associated with Cl.NC(=O)c1cnc(N[C@@H]2CCCC[C@@H]2N)nc1Nc1cccc(-n2nccn2)c1 [PRT062607 (P505-15, BIIB057) HCl] , nothing else.
middle class
